# experimental target: glucocorticoid receptor (Rattus norvegicus, UniProt P06536)
# Construct: from tissue; host or cells: liver cytosol of male Sprague-Dawley rats
# Sequence (P06536 whole entry): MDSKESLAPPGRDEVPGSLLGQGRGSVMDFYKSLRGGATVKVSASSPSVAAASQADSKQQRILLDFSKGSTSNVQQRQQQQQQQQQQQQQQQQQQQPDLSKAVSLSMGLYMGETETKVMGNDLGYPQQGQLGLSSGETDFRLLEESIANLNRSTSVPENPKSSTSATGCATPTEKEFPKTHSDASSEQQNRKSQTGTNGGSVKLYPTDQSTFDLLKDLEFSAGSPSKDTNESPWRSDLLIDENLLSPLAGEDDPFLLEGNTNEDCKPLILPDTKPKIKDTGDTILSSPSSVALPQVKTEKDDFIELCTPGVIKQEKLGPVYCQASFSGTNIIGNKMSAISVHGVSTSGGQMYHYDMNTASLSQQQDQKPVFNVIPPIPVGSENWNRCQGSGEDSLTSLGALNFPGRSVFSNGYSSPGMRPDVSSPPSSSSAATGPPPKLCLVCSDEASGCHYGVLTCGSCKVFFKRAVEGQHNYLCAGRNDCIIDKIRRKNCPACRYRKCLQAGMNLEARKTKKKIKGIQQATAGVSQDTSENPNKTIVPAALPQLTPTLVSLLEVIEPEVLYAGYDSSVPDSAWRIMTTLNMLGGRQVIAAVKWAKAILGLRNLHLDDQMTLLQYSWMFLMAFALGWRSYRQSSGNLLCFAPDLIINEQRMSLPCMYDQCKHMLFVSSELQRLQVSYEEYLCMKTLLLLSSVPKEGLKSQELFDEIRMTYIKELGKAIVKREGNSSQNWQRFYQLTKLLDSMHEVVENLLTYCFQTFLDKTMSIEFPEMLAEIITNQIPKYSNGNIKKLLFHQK
# protocol text: Glucocorticoid receptor assay: inhibition of [3H]-dexamethasone binding, liver cytosol
# condition summary: Table 4′; E^−8; read-out: % Inhibition Glucocorticold Receptor E^−8
measurement kind: inhibition at 0.01 µM (%)
Numbers only here, please. The scale is %.

For orientation, consider the following solved cases.
1) CC1(C)CCC2(CCC3C4CCc5c(cc(Cl)c(OS(C)(=O)=O)c5Cl)C4CCC32C)OC1=O (stereo not drawn) [EM-1392-CS] | 0
2) COCCOc1ccc2c(c1)CCC1C2CCC2(C)C1CCC21CCC(C)(C)C(=O)O1 (stereo not drawn) [EM-1368-CS] | 3

Challenge: GET /values?readout=inhibition at 0.01 µM&item= COCCOc1ccc2c(c1)C(=O)CC1C2CCC2(C)C1CCC21CCC(C)(C)C(=O)O1 (stereo not drawn) [EM-1408-CS]
Response given: 0

Challenge: For COc1ccc2c(c1)C(=O)CC1C3CCC4(CCC(C)(C)C(=O)O4)C3(C)CCC21O (stereo not drawn) [EM-1386] , what is its reported inhibition at 0.01 µM?
Response given: 3

Challenge: Can you look up the measured inhibition at 0.01 µM of CC1(C)CCC2(CCC3C4CCc5cc(OCCN6CCCCC6)ccc5C4CCC32C)OC1=O (stereo not drawn) [EM-1390-CS] for me?
Response given: 2

Challenge: Which inhibition at 0.01 µM value belongs to CC1(C)CC[C@@]2(CCC3C4CCc5cc(C(N)=O)ccc5C4CCC32C)OC1=O (stereo partly drawn) [EM-1404] ?
Response given: 0

Challenge: Need inhibition at 0.01 µM of COCCOc1cc2c(cc1C(=O)OC)C1CC[C@@]3(C)C(CC[C@@]34CCC(C)(C)C(=O)O4)C1CC2 (stereo partly drawn) [EM-1402-CS] , thanks.
Response given: 4

Challenge: Look up inhibition at 0.01 µM for this compound: CSCCOc1ccc2c(c1)CCC1C2CCC2(C)C1CCC21CCCC(=O)O1 (stereo not drawn) [CS-242]
Response given: 0

Challenge: Give the measured inhibition at 0.01 µM of COCCOc1cc2c(cc1Cl)C1CCC3(C)C(CCC34CCC(C)(C)C(=O)O4)C1CC2 (stereo not drawn) [EM-1371-CS] .
Response given: 1

Challenge: # input compound: CC1CCC2(CCC3C4CCc5ccccc5C4CCC32C)OC1=O (stereo not drawn) [EM-1025] ; wanted: its inhibition at 0.01 µM
Response given: 0

Challenge: Which inhibition at 0.01 µM value belongs to CN(C)CCOc1ccc2c(c1)CCC1C2CCC2(C)C1CCC21CCC(C)(C)C(=O)O1 (stereo not drawn) [EM-1389-CS] ?
Response given: 0

Challenge: Entry COCCOc1cc2c(cc1C(=O)O)C1CCC3(C)C(CCC34CCC(C)(C)C(=O)O4)C1CC2 (stereo not drawn) [EM-1405] : reported inhibition at 0.01 µM = ?
Response given: 0

Challenge: I am curious: what inhibition at 0.01 µM value has been reported for CC1(C)CCC2(CCC3C4CCc5c(cc(Cl)c(O)c5Cl)C4CCC32C)OC1=O (stereo not drawn) [EM-1391-CS] ?
Response given: 0

Challenge: Please give the measured inhibition at 0.01 µM for this compound: COCCOc1cc2c(cc1C#N)C1CC[C@@]3(C)C(CC[C@@]34CCC(C)(C)C(=O)O4)C1CC2 (stereo partly drawn) [EM-1396]
Response given: 0

Challenge: What value of measured inhibition at 0.01 µM is listed for CC1(C)CCC2(CCC3C4CCc5cc(O)c([N+](=O)[O-])cc5C4CCC32C)OC1=O (stereo not drawn) [EM-1125-CS] ?
Response given: 0

----------
# experimental target: estrogen receptor (Rattus norvegicus, UniProt P06211)
# Construct: from tissue; host or cells: uterine cytosol of gonadectomized female Sprague-Dawley rats
# Sequence (P06211 whole entry): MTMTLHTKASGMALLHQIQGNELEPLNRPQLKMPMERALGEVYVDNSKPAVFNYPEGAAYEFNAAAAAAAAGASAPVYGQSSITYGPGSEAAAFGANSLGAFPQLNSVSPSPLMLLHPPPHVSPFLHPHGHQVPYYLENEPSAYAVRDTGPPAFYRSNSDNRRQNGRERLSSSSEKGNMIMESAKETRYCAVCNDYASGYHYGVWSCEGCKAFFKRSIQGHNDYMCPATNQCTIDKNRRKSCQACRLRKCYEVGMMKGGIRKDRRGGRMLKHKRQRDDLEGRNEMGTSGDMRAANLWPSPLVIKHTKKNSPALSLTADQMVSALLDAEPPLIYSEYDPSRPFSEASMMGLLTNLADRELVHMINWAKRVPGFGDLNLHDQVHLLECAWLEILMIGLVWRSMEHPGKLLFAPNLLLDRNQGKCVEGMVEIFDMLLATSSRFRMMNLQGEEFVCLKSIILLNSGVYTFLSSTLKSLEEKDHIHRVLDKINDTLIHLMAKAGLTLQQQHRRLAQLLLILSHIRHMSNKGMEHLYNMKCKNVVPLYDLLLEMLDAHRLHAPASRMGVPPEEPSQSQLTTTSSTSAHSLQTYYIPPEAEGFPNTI
# protocol text: Estrogen receptor (ER) assay: inhibition of [3H]E2 binding, uterine cytosol
# condition summary: Table 4′; E^−8
Returns Y if the recorded % Inhibition Estrogen Receptor E^−8 is greater than or equal to 1%, and N otherwise.

Please review the entries below; each comes with its answer.
1. CN(C)CCOc1ccc2c(c1)CCC1C2CCC2(C)C1CCC21CCC(C)(C)C(=O)O1 (centres unmarked) [EM-1389-CS] | N
2. COCCOc1cc2c(cc1C(F)(F)F)[C@H]1CC[C@@]3(C)[C@@H](CC[C@@]34CCC(C)(C)C(=O)O4)[C@@H]1CC2 [EM-1438] | Y
3. COc1c(Br)cc2c(c1Br)CCC1C2CCC2(C)C1CCC21CCC(C)(C)C(=O)O1 (centres unmarked) [EM-1385-CS] | Y
4. COCCOc1cc2c(cc1C#N)C1CC[C@@]3(C)C(CC[C@@]34CCC(C)(C)C(=O)O4)C1CC2 (some centres unmarked) [EM-1396] | Y
5. CCS(=O)(=O)Oc1ccc2c(c1)CCC1C2CCC2(C)C1CCC21CCC(C)(C)C(=O)O1 (centres unmarked) [EM-1364-CS] | N
6. CSCCOc1ccc2c(c1)CCC1C2CCC2(C)C1CCC21CCCC(=O)O1 (centres unmarked) [CS-242] | N

Now, please, on to the next compound.
Challenge: Please tell me: is the compound COCCOc1cc2c(cc1Cl)C1CCC3(C)C(CCC34CCC(C)(C)C(=O)O4)C1CC2 (centres unmarked) [EM-1371-CS] at or over 1% in terms of % Inhibition Estrogen Receptor E^−8?
Response given: Y

----------
# System: ZR-75-1 cells
# protocol text: Antiestrogenic activity: inhibition of E2-induced proliferation of ZR-75-1 cells
# Format: cell-based, human
# Set-up: unit not given here
# condition summary: E2
Measured ZR-75-1 Activity, E2 of individual entries
The answer should be a number; do not append a unit.

These recorded examples may help you get a feel for the data.
1. CC(=O)[C@@]1(OC(=O)CCCCF)CCC2C3C=C(C)C4=CC(=O)CC[C@]4(C)C3CC[C@@]21C (stereo partly shown) [EM-1195-CS] | −40
2. CCC(=O)O[C@]1(C(C)=O)CCC2C3C=C(C)C4=CC(=O)C[C@H](C)[C@]4(C)C3CC[C@@]21C (stereo partly shown) [CS-243] | −57
3. CC(=O)O[C@]1(C(C)=O)CCC2C3C=C(C)C4=CC(=O)CC[C@]4(C)C3CC[C@@]21C (stereo partly shown) [megestrol acetate, reference compound] | −81

Moving on to the next compound.
Challenge: Request body: readout ZR-75-1 Activity, E2, system ZR-75-1 cells, query COC(=O)CCCC(=O)O[C@]1(C(C)=O)CC[C@H]2[C@@H]3C=C(C)C4=CC(=O)CC[C@]4(C)[C@H]3CC[C@@]21C [EM-1007] . Return the value.
Response given: −52

----------
# Test system: Shionogi mouse mammary carcinoma cells
# protocol text: Antiandrogenic activity: inhibition of DHT-induced proliferation of Shionogi cells
# Assay type: cell-based
# condition summary: DHT, E^−6
Threshold rule: Antiandrogenic Activity Shionogi, DHT greater than or equal to -100 is yes (1); below that, no (0).

1) CC(=O)O[C@]1(C(=O)N(C)C)CCC2C3C=C(C)C4=CC(=O)CC[C@]4(C)C3CC[C@@]21C (stereo partly shown) | yes (1)
2) CCCC(=O)OC1(C(C)=O)CCC2C3C=C(C)C4=CC(=O)CC(C)C4(C)C3CCC21C (stereo not shown) | no (0)
3) CCC(=O)O[C@]1(C(C)=O)CCC2C3C=C(C)C4=CC(=O)C[C@H](C)[C@]4(C)C3CC[C@@]21C (stereo partly shown) | no (0)
4) CC(=O)[C@@]1(OC(=O)CCCCF)CCC2C3C=C(C)C4=CC(=O)CC[C@]4(C)C3CC[C@@]21C (stereo partly shown) | no (0)
5) COC(=O)CCCC(=O)O[C@]1(C(C)=O)CC[C@H]2[C@@H]3C=C(C)C4=CC(=O)CC[C@]4(C)[C@H]3CC[C@@]21C | yes (1)

Please turn your attention to the following entry.
Challenge: Confirm if Antiandrogenic Activity Shionogi, DHT reported for the compound COc1ccc(CC(=O)O[C@]2(C(C)=O)CCC3C4C=C(C)C5=CC(=O)C=C[C@]5(C)C4CC[C@@]32C)cc1 (stereo partly shown) is -100 or above.
Response given: yes (1)

----------
Documented inhibition at 1 µM across a set of molecules
# experimental target: glucocorticoid receptor (Rattus norvegicus)
# Construct: from tissue; host or cells: liver cytosol of male Sprague-Dawley rats
# protocol text: Glucocorticoid receptor assay: inhibition of [3H]-dexamethasone binding, liver cytosol
# condition summary: Table 4′; E^−6; read-out: % Inhibition Glucocorticold Receptor E^−6
// unit must come after the numeric part

Please review the following examples before continuing.
1. COCCOc1cc2c(cc1Cl)C1CCC3(C)C(CCC34CCC(C)(C)C(=O)O4)C1CC2 (stereo not shown) [EM-1371-CS] | 0%
2. COCCOc1ccc2c(c1)CCC1C2CCC2(C)C1CCC21CCC(C)(C)C(=O)O1 (stereo not shown) [EM-1368-CS] | 3%
3. CC1(C)CCC2(CCC3C4CCc5c(cc(Cl)c(OS(C)(=O)=O)c5Cl)C4CCC32C)OC1=O (stereo not shown) [EM-1392-CS] | 8%

// next entry
Challenge: # lookup: inhibition at 1 µM of CC1(C)CC[C@@]2(CCC3C4CCc5cc(C(=O)O)ccc5C4CC[C@@]32C)OC1=O (stereo partly shown) [EM-1401]
Response given: 2%
